target: mushroom tyrosinase (Agaricus bisporus, UniProt C7FF04)
Sequence (C7FF04 1-392 limits assumed): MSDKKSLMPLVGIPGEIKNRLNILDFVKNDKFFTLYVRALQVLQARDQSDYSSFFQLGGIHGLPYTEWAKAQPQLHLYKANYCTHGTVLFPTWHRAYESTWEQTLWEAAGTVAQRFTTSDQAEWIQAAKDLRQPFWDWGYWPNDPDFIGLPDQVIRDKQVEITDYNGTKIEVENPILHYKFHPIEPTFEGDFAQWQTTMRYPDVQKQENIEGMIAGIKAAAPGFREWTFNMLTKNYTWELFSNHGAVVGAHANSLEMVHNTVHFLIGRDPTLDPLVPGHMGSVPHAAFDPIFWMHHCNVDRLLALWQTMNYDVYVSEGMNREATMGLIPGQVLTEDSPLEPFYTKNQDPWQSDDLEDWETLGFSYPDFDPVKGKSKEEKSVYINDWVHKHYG
MEASURED QUANTITY: IC50 (µM)

These solved cases illustrate the format of a correct answer.
{"SMILES": "Cn1ccc(-c2ccccc2)c1C#N", "TARGET OR SYSTEM": "mushroom tyrosinase (Agaricus bisporus, UniProt C7FF04)", "UNIT SPEC": "µM", "IC50": 7.42}
{"SMILES": "COc1ccc(Br)cc1-c1ccn(C)c1C#N", "TARGET OR SYSTEM": "mushroom tyrosinase (Agaricus bisporus, UniProt C7FF04)", "UNIT SPEC": "µM", "IC50": 2.11}
{"SMILES": "Cn1c(-c2ccccc2)cc(-c2ccc(Cl)cc2)c1C#N", "TARGET OR SYSTEM": "mushroom tyrosinase (Agaricus bisporus, UniProt C7FF04)", "UNIT SPEC": "µM", "IC50": 87.3}
{"SMILES": "Cn1ccc(-c2cccc(F)c2)c1C#N", "TARGET OR SYSTEM": "mushroom tyrosinase (Agaricus bisporus, UniProt C7FF04)", "UNIT SPEC": "µM", "IC50": 21.4}
{"SMILES": "COc1ccc(-c2ccn(C)c2C#N)cc1", "TARGET OR SYSTEM": "mushroom tyrosinase (Agaricus bisporus, UniProt C7FF04)", "UNIT SPEC": "µM", "IC50": 89.2}
{"SMILES": "Cn1ccc(-c2cccc(Cl)c2Cl)c1C#N", "TARGET OR SYSTEM": "mushroom tyrosinase (Agaricus bisporus, UniProt C7FF04)", "UNIT SPEC": "µM", "IC50": 4.83}

I. CCn1c(C)cc(-c2ccccc2)c1C#N
II. N#Cc1c(-c2ccc(Cl)cc2)ccn1Cc1ccccc1
III. COc1ccccc1-c1ccn(C)c1C#N
IV. Cn1ccc(-c2ccc(Br)cc2)c1C#N
Please put the entries in order of rising IC50. Respond with an ordered listing of the labels, as requested.
I, IV, III, II
